# credit: the nanobody polyreactivity screen of Harvey et al. (2022)

# protocol details: yeast display, Sf9 membrane polyspecificity reagent, FACS + sequencing; frameworks hold sequencing errors
metric: polyreactivity (PSR sort gate)

# sequence input, metric, observed value
rows = [
    ("QVQLVESGGGLVQAGGSLRLSCAASGSIFLYNAMGWYRQAPGKERELVATITSSTGSTYYADSVKGRFTISRDNAKNTVYLQMNSLKPEDTAVYYCATRESRRQRRYYYWGQGTQVTLSS", "polyreactivity (PSR sort gate)", "high polyreactivity"),
    ("QVQLVESGGGLFQAGGTLRLSCASSGLIFSRYAMGWYRQSPGKEWELVAGISTSGGRTYYADSVKGRFTISRYNAKNTVYFQMNSLKPEDTAVYYCAAQFKYRQINSYLLGDYWGQGTQVTVSS", "polyreactivity (PSR sort gate)", "high polyreactivity"),
]

---

# protocol details: yeast display, Sf9 membrane polyspecificity reagent, FACS + sequencing; frameworks hold sequencing errors

# sequence input, polyreactivity (PSR sort gate)
data = [
    ("QVQLVESGGSLVQAGGSLRLICAASGFIFWTYAMGWYRQAPGKERELVARISWSGGSTYYADSVKGRFTNSRDNAKNTVYLQMNSLKPEDTAVYYCAALTESSSYGYWGQGTQVTVSS", "low polyreactivity"),
    ("QVQLEESGGGLVQAGGSLRLSCAPSGRIYNRNAMGWYRQAPGKERELVASISSGGRTNYADSVKGRFTISRDNAKTTVYLQMNSLKPEDTAVFYCAGNSPRFLLDYWGQGTQVTVSS", "low polyreactivity"),
    ("QVQLVESGGGLVQAGGSLRLSCAASGFIFASYAMGWYRQAPGTERELVAAISWRGGSTYYADSVKGRFTISRDNAKNTVYLQMNSLKPEDTAVYYCNAYGYDGTGRGYDTLDYWGQGTQVTVSS", "low polyreactivity"),
]

---

# protocol details: yeast display, Sf9 membrane polyspecificity reagent, FACS + sequencing; frameworks hold sequencing errors
metric: polyreactivity (PSR sort gate)

# sequence input, observed value
rows = [
    ("QVQLVESGGGLVQAGGSLRLSCAASGSTFGGNAMGWYRQAPGKEREFVAAIRFSGGSTYYADSVKGRFTISRDNAKNTVYLQMNSLKPEDTAVYFCAKRGYGHLIPIAYEYWGQGTQVTVSS", "low polyreactivity"),
    ("QFQLVESGGGLVQAGGSLRLSCAASGITFGWYAMGWYRKATGKETELVASISSSGSTNYADSVKGRFTISRDNAKNTVYLQMNSLKPEDTAVYYCNKDYLLRQYYIYVIEGDYWGQGTLVTVSS", "low polyreactivity"),
]

---

# protocol details: yeast display, Sf9 membrane polyspecificity reagent, FACS + sequencing; frameworks hold sequencing errors

# sequence input, polyreactivity (PSR sort gate)
measured = [
    ("QVQLVESGGGLVQAGGSLRLSCASSGFSFDYYVMGWYRQAPGKEMELVASNRSRGASTHYADSVKGRFTISRDNAKNTVYLQMNRLKTEDTAVYYCAKGGGYRRAARSFGGGDYWGQGTHVTVSS", "low polyreactivity"),
    ("QVQLVESGGGLVQAGGSLRLSCADSGRIFDFNAMGWYRQAPGKERELVASIDWSGGNTYYADSVKGRFTISRDNAKNTVYVQMNSLKPEDTAVYYCNRDFWGVWEYDYWGQGTQVTVSS", "low polyreactivity"),
    ("QFQLLESGGGLVQAGGSLRLICAASGFICSLYAMGWYRPAPGKERELVATINRRGTSTFYADSVKGRFTISRDNAKNTVYLQMNSLKPEDTAVYYCNAYPGAAIRSTGRYDYWGQGTQVTVSS", "low polyreactivity"),
    ("QVQLVESGGGLVQAGGSLRLICAASGSIFFSYAMGSYRQAPGKERELVAGINRSGGSTYADSVKGRFTISRDNAKNTVNLQMTSLKPEDTAVYYCAAKYYSERSRYHYWGQGTQVTVSS", "low polyreactivity"),
]

---

# protocol details: yeast display, Sf9 membrane polyspecificity reagent, FACS + sequencing; frameworks hold sequencing errors
metric: polyreactivity (PSR sort gate)

Some entries whose results are on file:
# sequence input, polyreactivity (PSR sort gate)
measured = [
    ("QVQLEESGGGLVQAGGSLRLSCAASGFSFVTYPMGWYRQAPGKEREFVATISRSGGSTYYADSVKGRFTISRDNAKNTVYLQMNSLKPEDTAVYYCAARGRYPYRYGYWGQGTQVTVSS", "high polyreactivity"),
    ("QVQLVESGGGLVQAGGTLRLSCAASGSTFKSNAMGWYRQEPGKERELVAAINRSGAGTYYADSVKGRFTISRDNAKNTVYLQMNSLKPEDTAVYYCAAQSYSRRYDYWGQGTQVTVSS", "high polyreactivity"),
    ("QVQLVESGGGLVQAGGSLRLSCASYGYIFWSYAMGWYRQAPGKERELVAAISASGGRTYYADSVKGRFTISRDNAKNTVYLQMNSLKPEDTAVYYCNADPGNHAYWYYGEFYYYTYDYWGQGTQVTVSS", "low polyreactivity"),
    ("QVQLVESGGGLVQAGGSLRLSCAASGYTSNMGWYRQAPGKERELVAAITSGGDGTYYADSVKGRFTISRDNAKNTVYLQMNSLKPEDTAVYYCAKRGRDYNYGRAGYYWGQGTQVTVSS", "low polyreactivity"),
    ("HVQLVESGGGLVQAGGSLRLSCAASGIIFYQYAMGWYRQAPGKERELVATISSNGGATYADSVKGRFTISRDNAKNTVYLQMNSLKPEDTAVYYCNAGGRYHAPSGDYWGQGTQVTVSS", "low polyreactivity"),
    ("QVQLVESGGRLVQAGGSLRISSAASGFIFYKYTMGWYRQAPGKERELVAAITRSGGSTYYADSVKGRCTISRDNAKNTVYLQMNSLKPEDTAVYYCAATQSFRRNYDYWGQGTQVTVSS", "high polyreactivity"),
    ("QVQLVESGGGLVQAGGSLRLSCAASGSTFDYYAMGWYRQAPGKERELVAAISRTGGRTYYADSVKGRFTISRDNAKNTVYLQMNSLKPEDTAVYYCNAVTRIGGGDYDYWGQGTQVTGSS", "low polyreactivity"),
    ("QVQLVESGGGLVQAGGSLRLSCAASGSTSQSNAMGRYRQAPGKERELVAAISWSGTSTYYADSVKGRFTISRDNAKNTVYLQMNSLKPEDTAVYYCAADYIFDYDYWGQGTQVTVSS", "low polyreactivity"),
]

What does the data say about its polyreactivity (PSR sort gate)? Entry: QVQLVESGGGLVQAGGSLRLSCAASGSIIVPYAMGWYRQAPGKERELVAAISSRGGRTYYADSVKGRFTISRDNAKNTVYLQMNSLKPEDTAVYYCNKTAGSHIPRLEYWGQGTQVTVSS
low polyreactivity

Try this sequence next: QVQLVESGGGLVQAGGSLRLSCAASGLTFGFYAMGWYRQAPGKERELVAGISNGGSTNYADSVKARFTISRDNAKNTVYLQMNSLKPEDTAVFYCAAQGEYGFTAYYPGDSWGQGTQVTVSS
low polyreactivity

Try this sequence next: QVQLVESGGGLVQAGGSLRLSCAASGSIFDFYAMGWYRQAAGKERELVASITGRGGSTYYADSVKGRFSISRDKAKNTVYFQMNSLKPEDTAVYYCAAATFGRGGFEYWGQGTKVTVSS
high polyreactivity

---

# protocol details: yeast display, Sf9 membrane polyspecificity reagent, FACS + sequencing; frameworks hold sequencing errors
metric: polyreactivity (PSR sort gate)

Some entries whose results are on file:
# sequence input, observed value
records = [
    ("QVQLVESGGGLVQAGGSLRLSCAASGTTFGRNTMGWYRQAPGKERELVAAISKSGGSTRYADSVKGRFTISRDNAKNTVYLQMNRLKAEDTAFYYCAARVYSLGYGGDYWGQGTQVTVSS", "high polyreactivity"),
    ("QVQLVESGGGLVQAGGSLRLSCAASGRTFYYYVMGWYRQAPGKEREFVAAITSGGSTNYADSVKGRFTISRDNAKNTVYLQMNSLKPEDTAVYYCAAGKYTIYGYWTPYDYWGQGTQVTVSS", "low polyreactivity"),
    ("QVQLVESGGGLVQAGGSLRLSCAASGFIFSFNAMGWYRQAPGKERELVAAISRRGGRTYYADSVKGRFTISRDNAKNTVYLQMNSLKPEDTAVYYCAAQGRDSTPHGYWGQGTQVTVSS", "high polyreactivity"),
    ("QVQLGESGGGLVQAGGSLRFSCAASGRPFFVYGMGWSRQAPGKERELVAAISWNGGRTYYADSVKGRFTISRDKAKNTVYLQMKSLKPEDTAVYYCNARARDYTGPSSPIFYYWGQGTQVTVSS", "low polyreactivity"),
]

API: the following record is the query input.
What does the data say about its polyreactivity (PSR sort gate)? Entry: QVQLVESGGGLLQAGGSLRLSCAASGFTIQRYAMGWYRQAPGKERELVAAITSGGSTYYADSVKGRFTISRDNAKNTVYLQMNSLKPEDTAVYYCATRAVWSSWGRRYDSWGQGTQVTVSS
high polyreactivity
